A collection of binders and their measured OD450
- system: Peptide 1: Biotin-…-[Tyr(PC)]-acid
- Sequence (peptide, as listed by the source): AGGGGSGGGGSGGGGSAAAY
- procedure-details: scFv ELISA
parameter-measured: OD450

binder	parameter-measured	value-measured
PcOxP_DB04_A07 (scFv, V domains shown, scFv in periplasmic extract) VH: EVQLLESGGGLVQPGGSLRLSCAASGFTQSDFYMEWVRQAPGKGLEWVAASRNKANDYTTEYADSVKGRFTISRDNSKNTLYLQMNSLRAEDTAVYYCARDYYGSSYWYFDVWGQGTLVTVSS VL: DIQMTQSPSSLSASVGDRVTITCTASESLYSSKHKVHYLAWYQQKPGKAPKLLIYGISNRYIGVPSRFSGSGSGTDFTLTISSLQPEDFATYYCAQFYSYPLTFGGGTKVEIK	OD450	1.54 OD450
PcOxP_DB01_D08 (scFv, V domains shown, scFv in periplasmic extract) VH: EVQLLESGGGLVQPGGSLRLSCAASGFTFSDAYMEWVRQAPGKGLEWVAASRNKANDYTTEYADSVKGRFTISRDNSKNTLYLQMNSLRAEDTAVYYCARDYYGSSYWYFDSWGQGTLVTVSS VL: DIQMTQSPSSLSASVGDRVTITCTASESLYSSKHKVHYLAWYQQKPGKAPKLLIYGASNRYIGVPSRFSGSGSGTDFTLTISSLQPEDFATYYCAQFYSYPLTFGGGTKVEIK	OD450	0.58 OD450
PcOxP_DB02_C11 (scFv, V domains shown, scFv in periplasmic extract) VH: EVQLLESGGGLVQPGGSLRLSCAASGFTSSDFYMEWVRQAPGKGLEWVAASRNKANDYYTEYADSVKGRFTISRDNSKNTLYLQMNSLRAEDTAVYYCARDYYGSSYWYFDVWGQGTLVTVSS VL: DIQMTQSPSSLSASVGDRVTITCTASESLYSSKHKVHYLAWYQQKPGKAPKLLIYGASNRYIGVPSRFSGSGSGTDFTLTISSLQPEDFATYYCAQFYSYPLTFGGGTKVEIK	OD450	0.12 OD450
PcOxP_DB03_C10 (scFv, V domains shown, scFv in periplasmic extract) VH: EVQLLESGGGLVQPGGSLRLSCAASGFTFSSYYMEWVRQAPGKGLEWVAASRNKANEYTTEYADSVKGRFTISRDNSKNTLYLQMNSLRAEDTAVYYCARDYYGSSYWYFDVWGQGTLVTVSS VL: DIVMTQSPDSLAVSLGERATINCTASESLYSSKHKVHYLAWYQQKPGQPPKLLIYGAGNRYIGVPDRFSGSGSGTDFTLTISSLQAEDVAVYYCAQFYSYPLTFGGGTKVEIK	OD450	1.1 OD450
PcOxP_DB02_A04 (scFv, V domains shown, scFv in periplasmic extract) VH: EVQLLESGGGLVQPGGSLRLSCAASGDTFSDFYMEWVRQAPGKGLEWVAASRNKWNDYTTEYADSVKGRFTISRDNSKNTLYLQMNSLRAEDTAVYYCARDYYGSSYWYFDVWGQGTLVTVSS VL: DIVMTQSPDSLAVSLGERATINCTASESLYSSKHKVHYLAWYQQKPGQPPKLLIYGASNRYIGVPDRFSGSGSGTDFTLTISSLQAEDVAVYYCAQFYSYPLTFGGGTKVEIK	OD450	0.33 OD450
